- assay_method_text: basal RPMI8226 mitochondrial membrane potential changes, profiling panel, cell-based, JC-1 fluorescence, 24 h, 100 nL compound (AID 1169); further: test concentration not given here
- condition_parameters: RPMI8226 myeloma, JC-1 mitochondrial potential fluorescence, higher = more signal
property_measured: z-score

A selection of reference data follows.
COc1ccc([Si](C)(C)[C@H]2[C@H](CC(=O)N3CCC[C@H]3CO)O[C@@]3(C(=O)N(C)c4c(Br)cc(C)cc43)[C@@H]2C)cc1 :: -0.126
C=CCNC(=O)[C@H]1[C@@H]2C(=O)O[C@@H](c3ccccc3)[C@@H](c3ccccc3)N2[C@@H](c2ccc(O)cc2)[C@]12C(=O)Nc1ccc(C#CCC(C(=O)OC)C(=O)OC)cc12 :: -0.891

Q: For the molecule "CC(=O)NCCCC[C@@H]1NC(=O)[C@H]2C[C@@H](C(=O)O)[C@@H](c3cccc(OCCO)c3)N2C1=O" , report z-score.
A: -0.809

Q: For the molecule "C=C1C(=O)C=C2CN(C(=O)c3ccccc3)[C@@](Cc3ccc(F)cc3)(C(=O)OC)[C@@H]12" , report z-score.
A: -0.764

Q: For the molecule "[N-]=[N+]=NCc1ccccc1[C@H]1OC(c2ccc(OCCCO)cc2)=N[C@@]1(CCS(=O)(=O)c1ccccc1)C(=O)NCCN1CCOCC1" , report z-score.
A: -0.556

Q: For the molecule "CCOC(=O)C[C@H]1[C@H](OC(=O)c2ccccc2-c2ccccc2)[C@@H](NC(=O)CC(C)C)c2cc(OCCCO)ccc2N1C(=O)c1ccccc1" , report z-score.
A: -0.986

Q: For the molecule "CCOC(=O)C1=C[C@@H](C(C)(C)C)N(S(=O)(=O)c2ccc(C)cc2)[C@H]1c1ccc(OC)cc1" , report z-score.
A: -0.589

Q: For the molecule "COc1cc2c(cc1OC)CN(C(=O)[C@@H]1[C@H]3C(=O)O[C@H](c4ccccc4)[C@H](c4ccccc4)N3[C@H](c3ccc(O)cc3)[C@@]13C(=O)Nc1ccc(C#CC4=CCCCC4)cc13)CC2" , report z-score.
A: -0.733

Q: For the molecule "COc1ccc(C#Cc2ccc3c(c2)[C@]2(C(=O)N3)[C@H](c3ccccc3OCCO)N3[C@H](c4ccccc4)[C@H](c4ccccc4)OC(=O)[C@H]3[C@@H]2C(=O)NC[C@H](O)c2ccccc2)cc1" , report z-score.
A: -0.957

Q: For the molecule "Cc1cccc([C@H]2C[C@H]3C(Br)=C[C@@]2(CO)C(=O)[C@]32CO2)c1" , report z-score.
A: -0.0551

Q: For the molecule "O=C1O[C@H](c2ccccc2)[C@H](c2ccccc2)N2[C@H]1[C@@H](C(=O)N1CCCCCCC1)[C@]1(C(=O)Nc3ccc(C#CCCO)cc31)[C@H]2c1ccc(O)cc1" , report z-score.
A: -0.146

Q: For the molecule "C=CCNC(=O)[C@@H]1[C@H]2C(=O)O[C@H](c3ccccc3)[C@H](c3ccccc3)N2[C@H](c2ccc(OCCO)cc2)[C@@]12C(=O)Nc1ccc(C#CC3=CCCCC3)cc12" , report z-score.
A: -1.19

Q: For the molecule "COC(=O)[C@@]1(Cc2ccccc2)[C@H]2c3cc(C(=O)N(C)C)n(Cc4nc5ccccc5[nH]4)c3C[C@H]2CN1C(=O)c1ccccc1" , report z-score.
A: -0.303
